Assay: UV absorption (UV-VIS spectra in 2-propanol, 1 mg/100 ml)
Format: physicochemical
Parameters: unit not given here
Conditions: 1 mg/100 ml; value in brackets after λmax in the synthesis example
Procedure: FIG. 1: UV absorption spectra of 1-hydroxy-3-[(E)-3-(4-methoxyphenyl)-2-propenoyloxy]-2-oxopropane (Example 1a) and 1-hydroxy-3-(2-cyano-3,3-diphenylacryloyloxy)-2-oxopropane (Example 1b) (in each case measured in 2-propanol at a concentration of 1 mg/100 ml) […]
readoutLabel: UV absorbance at λmax (1 mg/100 ml)
Write no unit; give the number alone.

Endpoint output: UV absorbance at λmax (1 mg/100 ml) of CN(C)c1ccc(C(=O)OCC(=O)CO[Si](C)(C)C(C)(C)C)cc1 . Value?
0.67

Endpoint output: UV absorbance at λmax (1 mg/100 ml) of COc1ccc(/C=C/C(=O)NCC(O)CO)cc1 (stereo not drawn) [Example 10a] . Value?
0.940

Endpoint output: UV absorbance at λmax (1 mg/100 ml) of COc1ccc(/C=C/C(=O)OCC(=O)CO)cc1 . Value?
0.947
